- Tested on: Klebsiella pneumoniae
- Run Conditions: Concentration 32 ug.mL-1;; ASSAY_TEST Inhibition of Bacterial Growth; detection method Absorption (OD600); MEDIA CAMHB; plate type 384well; NBS; CORNING #3640; time 18 hr
- Description: Antibacterial activity against Klebsiella pneumoniae MDR ATCC 70063 (CO-ADD:GN_003); MIC in CAMBH media using NBS plates, by OD(600)
Results with a measured potency or affinity are listed apart.
Endpoint: Inhibition (%)
Please state the figure in %; there is no need to write the unit.

// recorded Inhibition for Cc1cc2nn(CC(=O)Nc3ccc(F)cc3F)c(=O)n2c(Nc2ccc(C)c(F)c2)n1 : 8.43

Lab note: measured Inhibition of COc1cccc(Oc2nccn3c(=O)n(CC(=O)Nc4ccc5c(c4)OCO5)nc23)c1 was 7.21

// sample CC(C)(C)Sc1ccc2nn(CC(=O)Nc3ccccc3Cl)c(=O)n2n1 , its Inhibition was 9.71

Lab note: Cc1oc(-c2cccc(Cl)c2)nc1CSc1nc2ccccc2n2c(C(C)C)nnc12 gave Inhibition of 8.12

// recorded Inhibition for CCOC(=O)c1ccccc1NC(=O)Cn1nc2c3cc(-c4ccc(Cl)cc4)nn3ccn2c1=O : 14.78

The reported Inhibition of the compound Cc1ccc(NC(=O)CSc2nnc3c(=O)n(-c4ccc(C)c(C)c4)ccn23)c(Cl)c1 was 12.06

The reported Inhibition of the compound COC(=O)c1ccc(NC(=O)Cn2nc3c(Oc4ccccc4)nccn3c2=O)cc1 was -0.72

Memo: Cc1nnc2ccc(S(=O)(=O)N(Cc3ccccc3)c3ccc(Cl)cc3)cn12 , reported Inhibition: 0.23

Inhibition reported for this compound COc1cccc(-n2ccn3c(SCC(=O)NCc4ccc(C)cc4)nnc3c2=O)c1 : 8.21

Documented Inhibition of COc1cc(NC(=O)Cn2nc3ccc(-c4ccc(C)c(C)c4)nn3c2=O)cc(OC)c1 : 2.14

The reported Inhibition of the compound Cc1nnc2c(=S)[nH]c3ccccc3n12 was 21.93

The measured Inhibition associated with Cc1cc2nn(CC(=O)Nc3ccccc3)c(=O)n2c(Nc2ccc(C)c(F)c2)n1 reads 9.53

Value of Inhibition reported for the compound CCc1ccccc1NC(=O)Cn1nc2cc(C)nc(Nc3ccc(F)cc3)n2c1=O is 9.33

Summary for this compound, CC(=O)c1cccc(NC(=O)CSc2nc3ccccc3n3c(C)nnc23)c1 : Inhibition is 2.18

Lab book: Inhibition of Cc1cc2nn(CC(=O)Nc3cc(F)ccc3C)c(=O)n2c(Nc2ccc(F)c(C)c2)n1 noted as 15.58

For reference, reported Inhibition for COc1ccc(N(Cc2cc(F)cc(F)c2)S(=O)(=O)c2ccc3nnc(C)n3c2)cc1 stands at 10.99

Consider Cc1ccc(NC(=O)Cn2nc3c4cc(-c5ccc(C)c(C)c5)nn4ccn3c2=O)c(Cl)c1 . Its measured Inhibition is 13.54

For reference, reported Inhibition for COc1ccc(-c2cc3c4nn(CC(=O)Nc5ccc6c(c5)OCO6)c(=O)n4ccn3n2)cc1 stands at 2.73

// Inhibition value for O=C(Cn1nc2c(Oc3ccccc3)nccn2c1=O)Nc1ccc(Cl)cc1 : 8.01

Field Inhibition (entry COc1ccc(-c2cc3c4nn(CC(=O)Nc5cc(OC)cc(OC)c5)c(=O)n4ccn3n2)cc1 ) reads 0.53

====

Would you kindly list Inhibition for each of these compounds?
- System: Klebsiella pneumoniae
- Run Conditions: Concentration 32 ug.mL-1;; ASSAY_TEST Inhibition of Bacterial Growth; detection method Absorption (OD600); MEDIA CAMHB; plate type 384well; NBS; CORNING #3640; time 18 hr
Measured potencies and affinities stand elsewhere.
Respond with the bare value in %.

The reported Inhibition of the compound Cc1cc2nn(CC(=O)Nc3ccc(F)cc3Cl)c(=O)n2c(Nc2ccc(F)cc2)n1 was 8.79

Measured Inhibition of CCC(Sc1nnc2c(=O)n(-c3ccccc3)ccn12)C(=O)Nc1cc(F)ccc1F (centres undefined) : 10.28

Just so you know, measured Inhibition for CCc1ccccc1NC(=O)Cn1nc2cc(C)nc(Nc3ccc(F)c(C)c3)n2c1=O came out at 11.82

What the record says about Cc1nnc2ccc(S(=O)(=O)N(Cc3cc(F)cc(F)c3)c3ccccc3)cn12 : Inhibition is 7.27

The compound identified as Cc1cccc(NC(=O)Cn2nc3ccc(-c4ccc(Cl)cc4)nn3c2=O)c1C registered its Inhibition at 8.72

# Inhibition (compound: Cc1ccc(-c2ccc3nn(Cc4nc(-c5ccc(OC(F)(F)F)cc5)no4)c(=O)n3n2)cc1 ) is -0.72

Lab book: Inhibition of O=C(CCc1nnc2c(N3CCCCC3)nc3ccccc3n12)NCc1ccc(F)cc1 noted as 6.52

So, COc1ccc(NC(=O)Cn2nc3ccc(SC4CCCCC4)nn3c2=O)c(OC)c1 ? Its Inhibition was 4.32

// sample O=C(NCc1ccccc1)c1ccc2nn(CC(=O)N3CCN(c4ccccc4F)CC3)c(=O)n2c1 , its Inhibition was 7.35

====

- Test system: Cryptococcus neoformans
- Run Conditions: Concentration 32 ug.mL-1; ASSAY_TEST Inhibition of Fungal Growth; detection method Resazurin; Absorption (OD600-OD570); plate type 384well; NBS; CORNING #3640
- Description: Antifungal activity against Cryptococcus neoformans H99 ATCC 208821 (CO-ADD:FG_002); MIC in YNB media using NBS plates, by Resazurin OD(600-570)
Results with a measured potency or affinity are listed apart.
The label depends only on Inhibition: condition met if it is at least -10%, condition not met if it is smaller.

Threshold query (Inhibition >= -10%) on O=c1c2nnc(-c3ccc([N+](=O)[O-])cc3)n2ccn1-c1ccc(F)c(F)c1
condition met

Hi, just wondering whether Cc1oc(-c2cccc(Cl)c2)nc1CSc1nc2ccccc2n2c(C(C)C)nnc12 shows Inhibition of -10% or higher.
condition not met

Tell me whether Inhibition is at least -10% here: Cc1cc2nn(CC(=O)Nc3cc(F)cc(F)c3)c(=O)n2c(Nc2ccccc2C)n1
condition not met

Could you please find out whether CCc1ccc(N(Cc2ccc(C)cc2)S(=O)(=O)c2cccn3c(C)nnc23)cc1 has Inhibition that meets -10% or exceeds it?
condition met

Decide: Inhibition of Cc1ccc(NC(=O)Cn2nc3c(Oc4ccccc4C)nccn3c2=O)cc1F >= -10%?
condition not met

====

- Test system: Cryptococcus neoformans
- Run Conditions: Concentration 32 ug.mL-1; ASSAY_TEST Inhibition of Fungal Growth; detection method Resazurin; Absorption (OD600-OD570); plate type 384well; NBS; CORNING #3640
Entries with a potency or affinity are not part of this list.
So basically: is Inhibition under -10%? Then class 1. Not under? Then class 0.

Field: below-cutoff. Rule: recorded Inhibition strictly less than -10%. Subject: CC(C)(C)S(=O)(=O)c1ccc2nn(CC(=O)Nc3ccc4c(c3)OCO4)c(=O)n2n1
class 0

Please indicate whether the reported Inhibition of Cc1ccc(N(CC(=O)OC(C)(C)C)S(=O)(=O)c2cccn3cnnc23)cc1 is strictly below -10%.
class 0

Given CCc1ccc(N(Cc2cc(F)cc(F)c2)S(=O)(=O)c2cccn3c(C)nnc23)cc1 , is recorded Inhibition strictly lower than -10%?
class 0

Given the entry O=C(Cn1nc2c3c4c(sc3ncn2c1=O)CCCC4)Nc1ccc2c(c1)OCO2 , would its reported Inhibition be below -10%?
class 1

Does this molecule meet the criterion Inhibition < -10%? COc1ccc(-n2ccn3c(-c4ccc([N+](=O)[O-])cc4)nnc3c2=O)cc1
class 1

Quick check: Inhibition of O=c1n(Cc2cc(F)cc(F)c2)nc2ccc(-c3ccccc3)nn12 under -10%?
class 1

For CCCCN(CC)C(=O)CSc1nnc2c(=O)n(Cc3ccccc3F)ccn12 , is the recorded Inhibition below the cut-off of -10%?
class 1

For this molecule, is Inhibition lower than -10%? COc1ccccc1Cn1c(=O)c2sccc2n2c(=O)n(Cc3ccccc3)nc12
class 1

Quick check: does Cc1ccc(C)c(NC(=O)Cn2nc3ccc(-c4ccc(C)c(C)c4)nn3c2=O)c1 have Inhibition under -10%?
class 0

Is the reported Inhibition for Cc1cccc(C)c1NC(=O)Cn1nc2c(N3CCSCC3)nc3ccccc3n2c1=O strictly below -10%?
class 1

Say whether its Inhibition is strictly beneath -10%. Entry: Cc1cccc(C)c1NC(=O)Cn1nc2n(C)c(=O)c3c(c(-c4ccccc4)cn3C)n2c1=O
class 0

# strict comparison: is reported Inhibition < -10%? input = Cc1cccc(C)c1NC(=O)CSc1nnc2ccc(C(=O)Nc3cccc(F)c3)cn12
class 0

Dear reviewer, please state whether COC(=O)c1cccc(NC(=O)Cn2nc3c(Oc4ccccc4)nccn3c2=O)c1 has Inhibition strictly beneath -10%.
class 0

State whether -10% exceeds Inhibition recorded for CCCCOc1ccc(-c2cc3c4nnc(SCC(=O)N(CC)c5ccccc5)n4ccn3n2)cc1 .
class 1

Say whether its Inhibition is strictly beneath -10%. Entry: O=C(Cn1nc2c(N3CCOCC3)nccn2c1=O)NCc1ccc(Cl)cc1
class 0

Lab log: compare recorded Inhibition with -10%; is it strictly lower for CCOc1ccc(NC(=O)Cn2nc3c4cc(-c5ccc(C)cc5)nn4ccn3c2=O)cc1 ?
class 1

Dear reviewer, please state whether COC(=O)c1cccc(NC(=O)Cn2nc3ccc(-c4ccc(C)c(C)c4)nn3c2=O)c1 has Inhibition strictly beneath -10%.
class 1

Bench note: check whether Cc1nnc2ccc(S(=O)(=O)N(Cc3ccc(F)cc3)c3ccc4c(c3)OCO4)cn12 shows Inhibition below -10%
class 0

Determine whether this molecule shows Inhibition lower than -10% (ties excluded): O=c1n(Cc2nc(-c3ccc4c(c3)OCO4)no2)nc2ccc(-c3ccccc3)nn12
class 1

Does CCc1cccc(NC(=O)Cn2nc3ccc(SC(C)C)nn3c2=O)c1 have Inhibition strictly under -10%?
class 1

Field: below-cutoff. Rule: recorded Inhibition strictly less than -10%. Subject: COC(=O)c1ccc(NC(=O)Cn2nc3ccc(C(=O)NCc4ccccc4)cn3c2=O)cc1
class 1

Just wondering, is Inhibition of COc1cc(NC(=O)Cn2nc3c4c5c(sc4ncn3c2=O)CCCC5)cc(OC)c1OC below -10%?
class 1

Would you kindly verify if Inhibition of Cc1ccc(-n2ccn3c(SCC(=O)N4CCN(c5ccc(F)cc5)CC4)nnc3c2=O)cc1C is strictly less than -10%?
class 0

Take the molecule CSc1cccc(NC(=O)Cn2nc3ccc(SC(C)(C)C)nn3c2=O)c1 and say whether its Inhibition is less than -10%.
class 1

For this molecule, is Inhibition lower than -10%? O=C(Cn1nc2c3cc(-c4ccc(Cl)cc4)nn3ccn2c1=O)NC1CCCC1
class 1

Report whether reported Inhibition is lower than -10% (strictly) for Cc1ccc(Cl)cc1NC(=O)Cn1nc2c(N3CCOCC3)nc3ccccc3n2c1=O
class 1

For this molecule, is Inhibition lower than -10%? O=C(CSc1nnc2c3cc(-c4ccccc4)nn3ccn12)NCc1ccccc1Cl
class 1

Please state whether Inhibition is below -10% for Cc1ccc(C)c(NC(=O)Cn2nc3ccc(-c4ccccc4)nn3c2=O)c1
class 1

Determine if COC(=O)c1ccc(CN(c2ccc(F)cc2)S(=O)(=O)c2cccn3c(C)nnc23)o1 shows Inhibition strictly lower than -10%.
class 0

Could you please tell me whether Inhibition recorded for O=C(Cn1nc2ccc(-c3ccc(Cl)cc3)nn2c1=O)N1CCN(c2ccccc2)CC1 is less than -10%?
class 0

Does O=C(Cn1nc2c3c4c(sc3ncn2c1=O)CCCC4)NCCc1ccc(Cl)cc1 have Inhibition strictly under -10%?
class 1

Here's an entry: Cc1ccc(C)c(-c2cc3c4nnc(CCC(=O)NCCc5ccc(Cl)cc5)n4ccn3n2)c1 . Is its Inhibition below -10%?
class 1

Is -10% strictly greater than the molecule's reported Inhibition? molecule: Cc1ccc(NC(=O)Cn2nc3ccc(-c4ccc(Cl)cc4)nn3c2=O)cc1F
class 0

Below -10% on Inhibition? Entry COc1ccc(NC(=O)Cn2nc3c(Oc4cccc(OC)c4)nccn3c2=O)cc1
class 0

Please determine if COc1ccc(NC(=O)Cn2nc3ccc(SC(C)C)nn3c2=O)cc1OC is below -10% in terms of Inhibition.
class 0

For this molecule, is Inhibition lower than -10%? Cc1cc(C)cc(Oc2nccn3c(=O)n(CC(=O)Nc4cccc(Cl)c4)nc23)c1
class 0

Does this molecule meet the criterion Inhibition < -10%? Cc1ccc(NC(=O)Cn2nc3c4cc(-c5ccc(C)c(C)c5)nn4ccn3c2=O)c(C)c1
class 1

Problem: For the molecule COc1ccccc1NC(=O)Cn1nc2c(Oc3ccc(Cl)cc3)nccn2c1=O , is Inhibition under -10%?
class 0

Please indicate whether the reported Inhibition of Cc1cccc(NC(=O)CSc2nnc3ccc(C(=O)Nc4cccc(F)c4)cn23)c1C is strictly below -10%.
class 0
